Every entry's value here was drawn from patent US20220281876A1.

# MEASURED ON: BTK (Homo sapiens)
# Construct: endogenous in cells; host or cells: Ramos cells
# Sequence (Q06187 whole entry): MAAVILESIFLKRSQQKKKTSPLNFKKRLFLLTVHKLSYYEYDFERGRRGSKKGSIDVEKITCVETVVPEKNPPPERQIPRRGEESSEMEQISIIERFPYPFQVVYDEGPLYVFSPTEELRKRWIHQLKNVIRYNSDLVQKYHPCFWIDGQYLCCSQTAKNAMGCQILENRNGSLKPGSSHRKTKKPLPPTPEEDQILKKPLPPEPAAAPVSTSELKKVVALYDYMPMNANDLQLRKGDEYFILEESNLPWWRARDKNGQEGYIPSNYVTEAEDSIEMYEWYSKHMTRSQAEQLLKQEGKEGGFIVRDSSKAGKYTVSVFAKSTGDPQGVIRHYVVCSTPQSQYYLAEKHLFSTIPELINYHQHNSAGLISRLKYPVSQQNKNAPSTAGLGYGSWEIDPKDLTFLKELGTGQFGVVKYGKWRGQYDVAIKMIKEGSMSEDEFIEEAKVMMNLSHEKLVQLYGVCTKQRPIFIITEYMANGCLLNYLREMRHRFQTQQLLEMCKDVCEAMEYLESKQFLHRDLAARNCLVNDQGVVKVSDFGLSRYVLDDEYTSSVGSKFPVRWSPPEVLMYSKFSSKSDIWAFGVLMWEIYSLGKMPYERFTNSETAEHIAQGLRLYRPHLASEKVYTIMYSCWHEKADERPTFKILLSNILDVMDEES
# ASSAY NAME: BTK cell degradation in Ramos cells (total BTK ELISA)
# Assay type: cell-based
# EXPERIMENTAL SETUP: 16 h incubation, FastScan total BTK ELISA
PROPERTY LABEL: DC50 (µM)

>  <COMPOUND>
CN(CCNc1cccc2c1C(=O)N(C1CCC(=O)NC1=O)C2=O)CCC(=O)N1CCC([C@@H]2CCNc3c(C(N)=O)c(-c4ccc(Oc5ccccc5)cc4)nn32)CC1 (some centres unmarked) [Example 38]

>  <MEASUREMENT UNITS>
µM

>  <VALUE REPORTED>
0.371

$$$$

[A] NC(=O)c1c(-c2ccc(Oc3ccccc3)cc2)nn2c1NCC[C@H]2C1CCN(C(=O)CCC2CCC(N3CCN(c4ccc5c(c4)C(=O)N(C4CCC(=O)NC4=O)C5=O)CC3)CC2)CC1 (some centres unmarked) [Example 151]
[B] CN(C/C=C/C(=O)N1CCC([C@@H]2CCNc3c(C(N)=O)c(-c4ccc(Oc5ccccc5)cc4)nn32)CC1)CCCCCNc1cccc2c1CN(C1CCC(=O)NC1=O)C2=O (some centres unmarked) [Example 46]
I would appreciate it if you could say which entry, A or B , has the lower DC50 value. Indicate which entry you chose by stating its label.
A
(A: 0.017 µM, B: 0.198 µM)
